I'd be grateful if you could share measured Percent Effect for these entries.
- systemUnderTest: Protein translocase subunit SecA (Escherichia coli (strain K12)) (UniProt P10408)
- Sequence (P10408 whole entry): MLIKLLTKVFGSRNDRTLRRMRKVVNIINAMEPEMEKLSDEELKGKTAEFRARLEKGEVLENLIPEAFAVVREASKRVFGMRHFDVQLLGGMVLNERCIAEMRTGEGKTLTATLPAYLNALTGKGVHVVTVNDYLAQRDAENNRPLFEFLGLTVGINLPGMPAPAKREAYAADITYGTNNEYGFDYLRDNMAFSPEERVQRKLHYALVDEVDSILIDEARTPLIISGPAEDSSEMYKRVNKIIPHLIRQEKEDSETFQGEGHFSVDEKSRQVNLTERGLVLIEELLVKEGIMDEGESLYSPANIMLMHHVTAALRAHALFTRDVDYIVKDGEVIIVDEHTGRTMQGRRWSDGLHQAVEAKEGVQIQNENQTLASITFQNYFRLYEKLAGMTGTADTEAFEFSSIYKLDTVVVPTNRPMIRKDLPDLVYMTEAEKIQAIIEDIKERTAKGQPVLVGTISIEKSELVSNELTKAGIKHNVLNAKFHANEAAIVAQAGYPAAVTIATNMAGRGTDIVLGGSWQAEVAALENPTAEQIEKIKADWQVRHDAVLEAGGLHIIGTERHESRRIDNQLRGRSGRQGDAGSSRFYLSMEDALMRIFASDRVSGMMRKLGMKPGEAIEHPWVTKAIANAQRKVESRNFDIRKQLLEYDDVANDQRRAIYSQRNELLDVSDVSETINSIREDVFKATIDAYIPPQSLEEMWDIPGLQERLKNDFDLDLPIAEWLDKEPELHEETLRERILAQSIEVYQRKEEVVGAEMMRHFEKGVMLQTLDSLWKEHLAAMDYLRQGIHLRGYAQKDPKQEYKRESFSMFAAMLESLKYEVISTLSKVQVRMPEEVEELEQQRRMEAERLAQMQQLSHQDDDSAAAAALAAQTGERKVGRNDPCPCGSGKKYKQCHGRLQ
- procedureText: Assay to Identify E. coli SecA ATPase Inhibitors
- Assay type: functional
- Parameters: scale not given: direction of the effect not stated beside the values
- measurementContext: 30 µM
Entries with a potency or affinity are not part of this list.
Kindly provide the numeric value in % only, without the unit symbol.

The compound O=C(CN1CCCC1Cn1cccn1)NC1CCOCC1 (stereo unspecified) showed Percent Effect equal to -0.811

The measured Percent Effect associated with `COc1cc(CNC(=O)Nc2cc(C(F)(F)F)c[nH]c2=O)ccn1` reads -3.54

`Cc1noc([C@@H]2C[C@H]3OCC[C@H]3N(S(C)(=O)=O)C2)n1` has a reported Percent Effect of -1.89

Item: `CCn1cc(N2Cc3nc(N4CCN(C)CC4)ncc3C2=O)cn1` | Percent Effect: -4.57

Reported Percent Effect of CC(OCC(F)(F)F)C(=O)N1CCCCC1 (stereo unspecified) : -5.31

Reported Percent Effect for O=C(c1cccc2c1OCO2)N1CCCC1Cn1cccn1 (stereo unspecified) was -4.17

Record `CC(=O)N1CCC(Oc2ccc(C#N)cn2)CC1` , field Percent Effect: -4.01

Percent Effect for `CC(C)Oc1ncnc2c1CCN(Cc1cccs1)CC2` is 3.01

Recorded Percent Effect (compound COCCN(C)CCN1CC2(CCN(C(=O)C3CCOC3)CC2)OC1=O (stereo unspecified) ): -4.65

The compound listed as `CN1CCN(Cc2cn3c(n2)CN(Cc2cccnc2)CC3)CC1` shows Percent Effect equal to 5.16

Lab book: Percent Effect of `O=C(CCNC(=O)c1ccccc1N1CCOCC1)NC1CCCC1` noted as -4.31

Looking up `CCCC(=O)NCc1cc(Br)c(OC)c(OC)c1` , I found its Percent Effect recorded as -2.9

Form field Percent Effect, entry c1coc(-c2nnc(CN3CCOC(Cn4cccn4)C3)o2)c1 (stereo unspecified) : -5.27

The value of Percent Effect measured for the compound `COCCCN1CCC(NC(=O)C(C)C)CC1` turned out to be -6.61

Entry O=C(NCC(F)(F)F)NC1CCCc2c1cnn2CCO (stereo unspecified) — recorded Percent Effect = -4.5

compound `O=C(NC1CC1)[C@H]1C[C@H]2OCC[C@H]2N(CC2CC2)C1` , Percent Effect observed: -4.51

get_value(item= `COc1ccc(NC(=O)CNc2ccc(Br)cc2F)cc1` , readout=Percent Effect) returns -3.43

Consider `CN(Cc1cccc(F)c1)C1CCN(CCc2ccccn2)CC1` . Its measured Percent Effect is -3.25

CCN(Cc1ccc2c(c1)OCO2)C(=O)NC(C)Cn1cccn1 (stereo unspecified) has a reported Percent Effect of -2.99

Reported Percent Effect for COc1ccccc1NC(=O)NCC(O)(c1ccccc1)C1CC1 (stereo unspecified) was -6.75

// sample `O=C1CN(Cc2nnc(-c3ccc(Br)cc3)o2)CCN1` , its Percent Effect was 0.69

Sure, the documented Percent Effect for COc1c(CNC2CCc3c(Cl)cccc32)c(C)nn1C (stereo unspecified) is -3.04

compound CC(=O)NCc1ccc(C(=O)N2CCCC2c2cnn(C)c2)o1 (stereo unspecified) , Percent Effect observed: -4.23

# Percent Effect (compound: `CC(C)(C(=O)NCC(N)=O)c1ccccc1F` ) is -2.75

// recorded Percent Effect for `CN(C)C(=O)CNC(=O)c1ccc(Cl)cc1F` : -6.12

Percent Effect for `CCc1noc(C)c1C(=O)N(C)Cc1ncc(C)c(OC)c1C` is -5.87
